Molecular target: T1, human melanocortin 4 receptor (human, UniProt P32245 1-332)
T1 construct: whole, on cells; cAMP assay on whole BHK cells; also called MC4R; human MC4 receptor
T1 sequence (P32245 whole entry): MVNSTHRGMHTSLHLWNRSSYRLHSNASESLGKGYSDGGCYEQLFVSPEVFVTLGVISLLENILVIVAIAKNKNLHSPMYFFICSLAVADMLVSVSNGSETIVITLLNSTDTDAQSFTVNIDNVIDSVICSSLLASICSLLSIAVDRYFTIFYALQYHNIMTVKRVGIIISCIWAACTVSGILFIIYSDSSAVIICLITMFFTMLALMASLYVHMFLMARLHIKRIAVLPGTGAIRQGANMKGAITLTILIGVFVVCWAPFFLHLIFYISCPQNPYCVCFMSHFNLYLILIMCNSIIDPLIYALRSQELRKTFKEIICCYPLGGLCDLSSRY
Assay: competition with 125-NDP-α-MSH, BHK human MC4R membranes
Positions of bridges follow the written chain, without caps; N, C: chain ends. Non-standard residues stand in square brackets, D forms with d. Phe(4-CN) = N#Cc1ccc(C[C@H](N)C(=O)O)cc1; Hyp = O=C(O)[C@@H]1C[C@@H](O)CN1; Thz = O=C(O)[C@@H]1CSCN1
measured_property: Ki (nM)
Value expressed in nM; do not type the unit.

Exercise: So what's the measured Ki for this one? cyclo(CAH[dF]R[Phe(4-CN)]CAKKKW) (disulfide 1-7; SMILES C[C@@H]1NC(=O)[C@@H]2CSSC[C@H](NC(=O)[C@H](Cc3ccc(C#N)cc3)NC(=O)[C@H](CCCNC(=N)N)NC(=O)[C@@H](Cc3ccccc3)NC(=O)[C@H](Cc3c[nH]cn3)NC1=O)C(=O)N[C@@H](C)C(=O)N[C@@H](CCCCN)C(=O)N[C@@H](CCCCN)C(=O)N[C@@H](CCCCN)C(=O)N[C@@H](Cc1c[nH]c3ccccc13)C(=O)N2, also called c[c[Cys-Ala-His-D-Phe-Arg-4-CN-Phe-Cys]-Ala-Lys-Lys-Lys-Trp]) [Chem. 65]
Solution: 0.47

Exercise: Consider the binder cyclo(CPH[dF]HWCAKKHR) (disulfide 1-7; SMILES C[C@@H]1NC(=O)[C@@H]2CSSC[C@H](NC(=O)[C@H](CCCNC(=N)N)NC(=O)[C@H](Cc3c[nH]cn3)NC(=O)[C@H](CCCCN)NC(=O)[C@H](CCCCN)NC1=O)C(=O)N1CCC[C@H]1C(=O)N[C@@H](Cc1c[nH]cn1)C(=O)N[C@H](Cc1ccccc1)C(=O)N[C@@H](Cc1c[nH]cn1)C(=O)N[C@@H](Cc1c[nH]c3ccccc13)C(=O)N2, also called c[c[Cys-Pro-His-D-Phe-His-Trp-Cys]-Ala-Lys-Lys-His-Arg]) [Chem. 95] and give its measured Ki.
Solution: 0.07

Exercise: Entry cyclo(C[Hyp]H[dF]RWC[Hyp]H[dF]RW) (disulfide 1-7; SMILES N=C(N)NCCC[C@@H]1NC(=O)[C@@H](Cc2ccccc2)NC(=O)[C@H](Cc2c[nH]cn2)NC(=O)[C@@H]2C[C@@H](O)CN2C(=O)[C@@H]2CSSC[C@H](NC(=O)[C@H](Cc3c[nH]c4ccccc34)NC1=O)C(=O)N1C[C@H](O)C[C@H]1C(=O)N[C@@H](Cc1c[nH]cn1)C(=O)N[C@H](Cc1ccccc1)C(=O)N[C@@H](CCCNC(=N)N)C(=O)N[C@@H](Cc1c[nH]c3ccccc13)C(=O)N2, also called c[c[Cys-Hyp-His-D-Phe-Arg-Trp-Cys]-Hyp-His-D-Phe-Arg-Trp]) [Chem. 32] : reported Ki = ?
Solution: 0.37

Exercise: Using the record for CXHFRWCXHFRW (ACBC 2, 8; D-Phe 4, 10; disulphide Cys1-Cys7; head-to-tail amide Cys1-Trp12, also called c[c[Cys-ACBC-His-D-Phe-Arg-Trp-Cys]-ACBC-His-D-Phe-Arg-Trp]) [Chem. 20] , report its Ki.
Solution: 0.15

Exercise: Fill in: Ki of cyclo(C[Thz]H[dF]HWCAKKKR) (disulfide 1-7; SMILES C[C@@H]1NC(=O)[C@@H]2CSSC[C@H](NC(=O)[C@H](CCCNC(=N)N)NC(=O)[C@H](CCCCN)NC(=O)[C@H](CCCCN)NC(=O)[C@H](CCCCN)NC1=O)C(=O)N1CSC[C@H]1C(=O)N[C@@H](Cc1c[nH]cn1)C(=O)N[C@H](Cc1ccccc1)C(=O)N[C@@H](Cc1c[nH]cn1)C(=O)N[C@@H](Cc1c[nH]c3ccccc13)C(=O)N2, also called c[c[Cys-THAZ-His-D-Phe-His-Trp-Cys]-Ala-Lys-Lys-Lys-Arg]) [Chem. 100] is ___
Solution: 0.04
